target: Quadruplex DNA; experiment: Displacement of thiazole orange from telomeric 22 H1 G-quadruplex DNA (unknown origin) in presence of KCl by fluorescent intercalator displacement assay; type: nucleic-acid assay
endpointLabel: EC50 (µM)
Provide only the numeric value, understood in µM.

compoundString | systemUnderTest | outputUnit | EC50
COc1ccc2c(c[n+](C)c3c4cc5c(cc4ccc23)OCO5)c1OC | Quadruplex DNA | µM | 2.59

# ---- query molecule ----
Lookup: Consider the molecule c1c2c(cc3c1OCO3)-c1cc3ccc4c(c3c[n+]1CC2)OCO4 and give its measured EC50.
Found: 12
